kon values, listed per item
target: T1, cTnI quality control product recombinant protein (human, UniProt P19429 2-210, limits assumed); assay: AMC sensor, antibody immobilised, cTnI in solution
T1 construct: treated as the same molecule; also called cTnI antigen; cardiac troponin I
T1 sequence (P19429 2-210 limits assumed): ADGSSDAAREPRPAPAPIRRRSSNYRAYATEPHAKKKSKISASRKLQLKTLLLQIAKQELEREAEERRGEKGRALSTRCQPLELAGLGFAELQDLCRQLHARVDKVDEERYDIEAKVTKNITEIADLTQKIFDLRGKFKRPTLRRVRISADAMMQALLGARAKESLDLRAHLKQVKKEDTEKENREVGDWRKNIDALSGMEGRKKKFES

{"binder": "Mutation 1-41 (antibody, V domains shown, Built as m8) VH: EVQLQQSGPELVKPGASVKMSCKASGYTFTLYVIHWVKQKPGQGLEWIGYINPYIDGTKYNEKFKGKATLTVDKSSSTAFMELSSLTSEDSAVYYCARSGYGNYGLAWLAYWGQGTLVTVSA VL: QAVVIQESALTTSPGETVTLTCRSSTGAVTTSNYANWVQEKPDHLFTGLIGGSQNRAPGVPARFSGSLIGDKAALTITGAQTEDEAIYFCALVYSNQWVFGGGTKLTVLG", "kon": "82000 M⁻¹ s⁻¹"}
{"binder": "Mutation 1-8 (antibody, V domains shown, Built as m8) VH: EVQLQQSGPELVKPGASVKMSCKASGYTFTIYVIHWVKQKPGQGLEWIGYIQPYLDGTKYNEKFKGKATLTVDKSSSTAFMELSSLTSEDSAVYYCARSGYGGYGLAWLAYWGQGTLVTVSA VL: QAVVIQESALTTSPGETVTLTCRSSTGAATTSQYANWVQEKPDHLFTGLIGGSNNRAPGVPARFSGSLIGDKAALTITGAQTEDEAIYFCALVYSNQWVFGGGTKLTVLG", "kon": "26200 M⁻¹ s⁻¹"}
{"binder": "Mutation 1-33 (antibody, V domains shown, Built as m8) VH: EVQLQQSGPELVKPGASVKMSCKASGYTFTLYVVHWVKQKPGQGLEWIGYIYPYIDGTKYNEKFKGKATLTVDKSSSTAFMELSSLTSEDSAVYYCARSGYGGYGLAWLAYWGQGTLVTVSA VL: QAVVIQESALTTSPGETVTLTCRSSTGAATTSQYANWVQEKPDHLFTGLIGGSQNRAPGVPARFSGSLIGDKAALTITGAQTEDEAIYFCALVYSNNWVFGGGTKLTVLG", "kon": "41700 M⁻¹ s⁻¹"}
{"binder": "Mutation 1-53 (antibody, V domains shown, Built as m8) VH: EVQLQQSGPELVKPGASVKMSCKASGYTFTIYVVHWVKQKPGQGLEWIGYIYPYIDGTKYNEKFKGKATLTVDKSSSTAFMELSSLTSEDSAVYYCARSGYGGYGLAWLAYWGQGTLVTVSA VL: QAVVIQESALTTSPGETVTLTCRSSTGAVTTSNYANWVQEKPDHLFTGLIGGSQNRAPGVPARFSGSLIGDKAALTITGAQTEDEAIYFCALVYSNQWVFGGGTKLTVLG", "kon": "64800 M⁻¹ s⁻¹"}
{"binder": "Mutation 1-49 (antibody, V domains shown, Built as m8) VH: EVQLQQSGPELVKPGASVKMSCKASGYTFTLYVLHWVKQKPGQGLEWIGYINPYLDGTKYNEKFKGKATLTVDKSSSTAFMELSSLTSEDSAVYYCARSGYGNYGLAWLAYWGQGTLVTVSA VL: QAVVIQESALTTSPGETVTLTCRSSTGAVTTSQYANWVQEKPDHLFTGLIGGSQNRAPGVPARFSGSLIGDKAALTITGAQTEDEAIYFCALVYSNNWVFGGGTKLTVLG", "kon": "88400 M⁻¹ s⁻¹"}
{"binder": "Mutation 1-54 (antibody, V domains shown, Built as m8) VH: EVQLQQSGPELVKPGASVKMSCKASGYTFTIYVVHWVKQKPGQGLEWIGYINPYLDGTKYNEKFKGKATLTVDKSSSTAFMELSSLTSEDSAVYYCARSGYGQYGLAWLAYWGQGTLVTVSA VL: QAVVIQESALTTSPGETVTLTCRSSTGAATTSNYANWVQEKPDHLFTGLIGGSNNRAPGVPARFSGSLIGDKAALTITGAQTEDEAIYFCALVYSNQWVFGGGTKLTVLG", "kon": "41300 M⁻¹ s⁻¹"}
{"binder": "Mutation 1-46 (antibody, V domains shown, Built as m8) VH: EVQLQQSGPELVKPGASVKMSCKASGYTFTIYVLHWVKQKPGQGLEWIGYINPYIDGTKYNEKFKGKATLTVDKSSSTAFMELSSLTSEDSAVYYCARSGYGNYGLAWLAYWGQGTLVTVSA VL: QAVVIQESALTTSPGETVTLTCRSSTGAVTTSNYANWVQEKPDHLFTGLIGGSNNRAPGVPARFSGSLIGDKAALTITGAQTEDEAIYFCALVYSNNWVFGGGTKLTVLG", "kon": "40100 M⁻¹ s⁻¹"}
{"binder": "Mutation 1-22 (antibody, V domains shown, Built as m8) VH: EVQLQQSGPELVKPGASVKMSCKASGYTFTLYVLHWVKQKPGQGLEWIGYIYPYIDGTKYNEKFKGKATLTVDKSSSTAFMELSSLTSEDSAVYYCARSGYGNYGLAWLAYWGQGTLVTVSA VL: QAVVIQESALTTSPGETVTLTCRSSTGAVTTSQYANWVQEKPDHLFTGLIGGSNNRAPGVPARFSGSLIGDKAALTITGAQTEDEAIYFCALVYSNNWVFGGGTKLTVLG", "kon": "27000 M⁻¹ s⁻¹"}
{"binder": "Mutation 1 (antibody, V domains shown, CDR mutant of WT) VH: EVQLQQSGPELVKPGASVKMSCKASGYTFTLYVVHWVKQKPGQGLEWIGYIQPYLDGTKYNEKFKGKATLTVDKSSSTAFMELSSLTSEDSAVYYCARSGYGGYGLAWLAYWGQGTLVTVSA VL: QAVVIQESALTTSPGETVTLTCRSSTGAATTSQYANWVQEKPDHLFTGLIGGSNNRAPGVPARFSGSLIGDKAALTITGAQTEDEAIYFCALVYSNHWVFGGGTKLTVLG", "kon": "51000 M⁻¹ s⁻¹"}
{"binder": "Mutation 1-34 (antibody, V domains shown, Built as m8) VH: EVQLQQSGPELVKPGASVKMSCKASGYTFTLYVLHWVKQKPGQGLEWIGYIQPYIDGTKYNEKFKGKATLTVDKSSSTAFMELSSLTSEDSAVYYCARSGYGNYGLAWLAYWGQGTLVTVSA VL: QAVVIQESALTTSPGETVTLTCRSSTGAATTSNYANWVQEKPDHLFTGLIGGSNNRAPGVPARFSGSLIGDKAALTITGAQTEDEAIYFCALVYSNHWVFGGGTKLTVLG", "kon": "58000 M⁻¹ s⁻¹"}
